assay: soluble on expression in E. coli; label from the status in PepcDB or PDB records
Measurement Type: soluble on expression in E. coli

MLEWRGDKYVNGYYPVSSSAPDLLLECISNESKKYLPGELIAVECKWRSTVNFFIPKSDAEKYEKYFRTNKTRYRVKHLFYLFGFGWSDNAPESVYIIPSTALYEYDENTFEITFPNGELIKDKKIRMEDYKMKFKNLIYTVPENRKHLSYQTKSFDTKKKDEPMQR
not soluble
MKIDLPPLRQFLNRLLALTIRMQNVIFERFELLLSQQIETAIANGIFEAGVETLRAERFTIESCESVYTHPDTGSVTNYLKVEQVQRNNIRTAVEMLEFAAKYQGQLMVNQKSSNAAVSIPTHSIFDCDGGVVPRVLLVRPQKETRVPVEQLESSTWQQVSAEEFVTAWSREVDELPRFTTDYLHLVTGILLPIWKILPQKNSRVFRLQTSDGQKILGRVVHASDIQTVTEQLGLKNKLLSPAELEHHHHHH
not soluble
MMAQEISNLVKKYNVTWQQTMLRIYDPKETVEFYEKNFGMINIHTYHFNEYNFSLYFLITPPYDEEERKKLPEPNTKESEKYLWNLNTVCLELTYNHNSQEKLSNGNNENDRGFGHIAFNCNDVIEQCDNLFKKNVKFHKLPHETKMKTIGFALDPNNYWIEIVKRSNQVKWKNYKNITNFSQTMIRVKNPEKSLYFYIHILGMKLIHVKHCSDFSLYFLKSNYACAENNKEMIEDQSNKNTNEIYDFNSLKNSYQTDEDYENFKQSWEPVLELTHNHGTEDDDNFSYHNGNTEPRGFGHIGFLVNDLENYCKELETLNVTFKKKVTEGLMKNIAFIYDPDNYVIELIQRDTSFIAK
not soluble

Provenance of the data: the DeepSol protein solubility set
